assay: Inhibition of human DLK transfected in HEK293-T-REx cells assessed as decrease in JNK phosphorylation incubated for 5 hrs by HTRF assay; format: cell-based
outcome-measure: pIC50
Interpret pIC50 as the negative base-10 log of the concentration measured in mol/L.

Illustrative cases are given below, each with its answer.
{"structure-smiles": "CCn1nc(-c2cnc(N)c(OC(F)(F)F)c2)c2ccn([C@@H]3CCCOCC3)c(=O)c21", "outcome-measure": "pIC50", "obs-value": 6.85}
{"structure-smiles": "CCc1nc(-c2cnc(N)c(OC(F)(F)F)c2)c2ccn(C3CCOCC3)c(=O)n12", "outcome-measure": "pIC50", "obs-value": 6.72}

API: the following record is the query input.
Give recorded pIC50. CN1CCC(c2ccc3c(-c4cnc(N)c(C(F)(F)F)c4)nc(C#N)n3c2)CC1
6.79
